biological target: cellular PARG (Homo sapiens); construct: endogenous in cells; assay: Nuclear PAR accumulation assay (immunofluorescence high-content imaging, MMS-treated HeLa cells); details: 1 hour compound then MMS 50 μg/mL for an additional hour
Sequence (Q86W56 whole entry): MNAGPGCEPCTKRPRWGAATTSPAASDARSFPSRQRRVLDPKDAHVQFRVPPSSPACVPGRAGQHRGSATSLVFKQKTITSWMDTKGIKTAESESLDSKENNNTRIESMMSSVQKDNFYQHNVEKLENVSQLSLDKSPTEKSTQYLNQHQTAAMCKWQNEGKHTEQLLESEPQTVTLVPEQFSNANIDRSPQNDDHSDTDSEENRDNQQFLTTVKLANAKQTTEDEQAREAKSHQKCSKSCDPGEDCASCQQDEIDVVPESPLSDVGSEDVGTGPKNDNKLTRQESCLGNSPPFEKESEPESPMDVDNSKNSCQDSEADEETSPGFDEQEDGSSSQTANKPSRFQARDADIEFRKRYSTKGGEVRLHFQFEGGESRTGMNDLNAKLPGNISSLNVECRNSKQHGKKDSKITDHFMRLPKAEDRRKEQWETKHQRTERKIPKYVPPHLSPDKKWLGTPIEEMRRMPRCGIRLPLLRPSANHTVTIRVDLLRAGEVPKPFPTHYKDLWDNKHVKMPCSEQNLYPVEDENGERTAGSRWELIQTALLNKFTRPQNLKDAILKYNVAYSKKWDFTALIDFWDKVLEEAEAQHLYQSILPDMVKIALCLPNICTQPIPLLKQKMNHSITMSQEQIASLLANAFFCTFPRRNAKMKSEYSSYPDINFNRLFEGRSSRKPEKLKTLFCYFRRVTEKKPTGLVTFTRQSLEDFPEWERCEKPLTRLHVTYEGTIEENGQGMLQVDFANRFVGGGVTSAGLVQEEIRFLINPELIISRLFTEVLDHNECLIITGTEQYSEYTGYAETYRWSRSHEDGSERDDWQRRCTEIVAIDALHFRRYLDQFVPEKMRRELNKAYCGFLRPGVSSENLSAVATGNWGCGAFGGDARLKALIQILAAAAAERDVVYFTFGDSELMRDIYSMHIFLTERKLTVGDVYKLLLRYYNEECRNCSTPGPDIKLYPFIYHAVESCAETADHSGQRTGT
pIC50: −log10 of the molar value.
recorded_metric: pIC50

Worked set:
>>> result("Cn1cc(CN2C(=O)c3cc(S(=O)(=O)NC4(C)CC4)ccc3N3C2=NCC3C#Cc2ccncn2)cn1 (stereo not shown) [Example 132]")
"6.00 to 7.00"
>>> result("CCN1C(=O)c2cc(S(=O)(=O)NC3(C)CC3)ccc2N2C1=NC[C@H]2C#Cc1ccnn1C [Example 198]")
"> 7.00"
>>> result("CC1(NS(=O)(=O)c2ccc3c(c2)N(c2nnc(C(F)F)s2)C2=NOCCN23)CC1 [Example 86]")
"> 7.00"
>>> result("[2H]C([2H])(c1cnn(C)c1)N1C(=O)c2cc(S(=O)(=O)NC3(C)CC3)ccc2N2C1=NC[C@H]2C#Cc1cncc(N(C)C)c1 [Example 253]")
"> 7.00"
>>> result("Cc1ccc(C#CC2CN=C3N(C)C(=O)c4cc(S(=O)(=O)NC5(C)CC5)ccc4N32)cn1 (stereo not shown) [Example 203]")
"> 7.00"

// query Indicate the recorded pIC50 value for this compound: Cc1cnn2c(C#C[C@@H]3CN=C4N(C)C(=O)c5cc(S(=O)(=O)NC6(C)CC6)ccc5N43)cnc2c1 [Example 182]
// result > 7.00

// query Indicate the recorded pIC50 value for this compound: [2H]C([2H])(c1cnn(C)c1)N1C(=O)c2cc(S(=O)(=O)NC3(C)CC3)ccc2N2C1=NC[C@@H]2C#C [Example 90]
// result 6.00 to 7.00
